Settings: buffer; pH 7.4; 200.0 µM
We begin with a simple list: items and their reported solubility kinetic.
Please respond with the number in µg/mL and leave the unit unwritten.

Given the compound "CC(=O)Cn1cnc2scc(-c3ccc(C)c(C)c3)c2c1=O" , what is its reported solubility kinetic?
43.7

Any idea what solubility kinetic was measured for COc1cc(OC)cc(C(=O)N[C@H](C(=O)NC2CCCc3ccccc32)C(C)C)c1 (some centres not stated) ?
1.9

// solubility kinetic lookup, key: "O=C(c1ccc(F)cc1)c1ccc(-c2ccc(F)cc2)nc1"
0.9

Give its solubility kinetic value. Item: CC(=O)N(CN1C(=O)C2C3C=CC(C3)C2C1=O)c1cccc(Cl)c1 (configuration not stated)
50.4

Fill blank: measured solubility kinetic of the compound "Cc1ccc(NC(=O)Cn2ccnc2)cc1C" is ____.
30.4

Next:
Entry under review: "Cc1ccccc1NC(=O)Nc1ccc2c(c1)OCO2" . Reported solubility kinetic?
0.5

----------
Conditions: buffer; pH 7.4; 200.0 µM
Rule: solubility kinetic under 3 µg/mL gives 0.0, otherwise 1.0.

Below, 5 compounds whose answers are already recorded.
API: above_or_equal(metric=solubility kinetic, cutoff=3 µg/mL) for item "COc1ccc(NC(=O)NCc2ccc(Cl)cc2)cc1"
0.0

Record "COCc1cc(OC(=O)N(C)C)nc(-c2ccccc2)n1" ; criterion: solubility kinetic no lower than 3 µg/mL. Met?
1.0

Decide: is the reported value of solubility kinetic for "CN1CCN(c2nc3ccccn3c(=O)c2C=O)CC1.Cl" equal to or greater than 3 µg/mL?
1.0

Textbook exercise: given the entry CC1=C(C(=O)OCC2CCCCC2)C(c2ccc(F)cc2)NC(=O)N1 (configuration not stated) , state whether its solubility kinetic is greater than or equal to 3 µg/mL.
0.0

solubility kinetic >= 3 µg/mL for CCOC(=O)C1=C(c2ccc(O)cc2)NC(=O)NC1C (configuration not stated) ?
1.0

New cases:
Textbook exercise: given the entry "CC(=O)N1CCN(C(=O)COC(=O)c2ccc(S(C)(=O)=O)cc2)CC1" , state whether its solubility kinetic is greater than or equal to 3 µg/mL.
1.0

Determine whether measured solubility kinetic meets or exceeds 3 µg/mL for "O=C1CNC(=S)N1c1nc2ccccc2s1"
1.0

Check the entry Cc1ccc(C(=O)C2CCN(C(=S)NCC3CCCO3)CC2)cc1 (configuration not stated) : does solubility kinetic equal or exceed 3 µg/mL?
1.0

Identify whether the reported solubility kinetic of the following compound is 3 µg/mL or greater: CCCNC(=O)CN1C(=O)NC(CCSC)C1=O (configuration not stated)
1.0

Say whether "N#Cc1ccc(/C=C/C(=O)c2ccc3c(c2)OCO3)cc1" shows solubility kinetic of 3 µg/mL or more.
0.0

Is it the case that "CC(C)(C)c1ccc(C(=O)NCCc2ccccc2)cc1" has solubility kinetic reaching or exceeding 3 µg/mL?
0.0

Does "COc1ccc(CNC(=O)c2cccnc2SC)cc1OC" have a reported solubility kinetic of at least 3 µg/mL?
1.0

----------
Conditions: buffer; pH 7.4; 200.0 µM
readout: solubility kinetic

Sample "Cc1ccc(NC(=O)NC2CCCCCCC2)cc1C" — what was its solubility kinetic?
< 0.3 µg/mL

solubility kinetic for "O=C(O)c1ccccc1-n1cccc1C(=O)O" ?
> 34.7 µg/mL

Sample "COc1cc(CN2CCN(c3ncccn3)CC2)cc(OC)c1" — what was its solubility kinetic?
> 47.2 µg/mL

Reported solubility kinetic for COc1ccc(NC(=S)NC2CC3CCC2C3)c(OC)c1 (stereo unspecified) : what is it?
14.8 µg/mL

Return reported solubility kinetic; argument: "O=C(Nc1nc2ccsc2c(=O)s1)c1ccc(F)cc1Cl"
< 0.4 µg/mL

Kindly review the next compound as well.
# solubility kinetic lookup, item "Cc1ccc(CN(C)C(=O)c2ccccc2Sc2ccccc2C#N)cc1"
14.7 µg/mL

----------
Conditions: buffer; pH 7.4; 200.0 µM
readout: solubility kinetic

Can you share its solubility kinetic? I mean this molecule: "NC(=O)c1ccc(NC(=O)COC(=O)C2CCN(S(=O)(=O)c3cccs3)CC2)cc1"
25.1 µg/mL

// lookup solubility kinetic for "CO/N=C(\C)C(Cc1ccc(Cl)nc1)Cc1ccc(Cl)nc1"
> 50.7 µg/mL

I'd like to know its solubility kinetic. The molecule in question is "Cc1cc(OC(F)F)ccc1NC(=O)Nc1ccc2c(c1)OCO2"
< 0.4 µg/mL

What does the data say about its solubility kinetic? Entry: "CCN(C(=O)CSc1nccc(=O)[nH]1)c1cccc2ccccc12"
> 50.9 µg/mL

What does the data say about its solubility kinetic? Entry: CC(C)(C)NCC(O)CON=C1c2ccccc2-c2ccccc21 (stereo unspecified)
44.1 µg/mL

Given "CN(Cc1ccccn1)Cc1nc(COc2ccccc2)no1" , state its recorded solubility kinetic.
45.7 µg/mL

I have this molecule here, "CCOC(=O)Cn1c(C)cc(COC)c(C#N)c1=O" , and I need its recorded solubility kinetic.
> 39.6 µg/mL

# query: solubility kinetic of entry "COc1cccc(N2CCN(C(=S)Nc3ccc(F)cc3)CC2)c1"
0.6 µg/mL

What does the record list as solubility kinetic for O=C(NC1CC2CCC(C1)N2Cc1ccccc1)c1cccc(F)c1 (stereo unspecified) ?
> 50.8 µg/mL

Item "CN1CCN(C(=O)c2cc(Cl)cc(Cl)c2)CC1" has what recorded solubility kinetic?
> 41 µg/mL

Next item in the queue.
// lookup solubility kinetic for "COc1ccc2c(c1)c(C(C)=O)c(C)n2CCc1ccccc1"
< 0.7 µg/mL

----------
Recorded measurements of solubility kinetic, one per entry
Details: buffer; pH 7.4; 200.0 µM
Express it in µg/mL; write the number only.

Some solved cases for reference:
Param item = "CC1CCN(C(=O)COc2ncnc3ccccc23)CC1" ; retrieve measured solubility kinetic.
35.7

So what does the record say about solubility kinetic for "Cc1csc2c(=O)sc(NC(=O)c3cccs3)nc12" ?
0.6

For the compound "NC1=NC(=O)/C(=C/c2ccsc2)S1" , what solubility kinetic is on record?
19.5

More entries:
May I ask what solubility kinetic has been recorded for "O=c1[nH]c2cc(S(=O)(=O)CCO)ccc2o1" ?
32.4

I would be grateful if you could share the reported solubility kinetic for "COCC(=O)N(Cc1cc2ccc(C)cc2[nH]c1=O)c1ccc(C)cc1C" .
4.9

Entry CCCCC(CCC(=O)Nc1cccc([N+](=O)[O-])c1)C(=O)O (centres undefined) : reported solubility kinetic = ?
43.7

What does the record list as solubility kinetic for "CCN1CCN(C/C(C)=C/c2ccccc2)CC1" ?
27.2

Reported solubility kinetic for "COc1ccc2oc(=O)cc(CN3CCOCC3)c2c1" : what is it?
39.5

Consider the compound shown here: Cc1nc2ccc(Br)cc2c2c1CC(CBr)O2 (centres undefined) What is its recorded solubility kinetic?
2.2

Value lookup for solubility kinetic; key = "COc1ccc(C2(C(=O)NCCc3ccccc3)CCCC2)cc1"
31.1

Which solubility kinetic value belongs to "COc1ccc(-c2noc(CCCC(=O)N3CCOCC3)n2)cc1" ?
49.6

Query: solubility kinetic; subject: "COc1ccc(C(=O)Nc2nc(-c3ccccc3)c(C(C)=O)s2)c(OC)c1"
0.7

Record request: solubility kinetic value, item "O=c1[nH]cc(-c2ccc(Br)cc2)n1Cc1ccccc1"
1.6

Fill in: solubility kinetic of CCC1CCc2sc(C(=O)NCc3ccccn3)cc2C1 (centres undefined) is ___
36.8

Query (compound): "CC(=O)c1ccc(S(=O)(=O)N2CCC(C(=O)Nc3ncc(C)s3)CC2)cc1" ; field requested: solubility kinetic
3

----------
Conditions: buffer; pH 7.4; 200.0 µM
readout: solubility kinetic (µg/mL)
Just the number please, in µg/mL, no unit attached.

Return reported solubility kinetic; argument: COc1ccc(OC)c(C2=NOC(C(=O)NCc3cccnc3)C2)c1 (stereo unspecified)
47.8

Now turn to the next compound.
Endpoint output: solubility kinetic of "O=C(Nc1cccc(Cl)c1)C1CCN(C(=O)c2cccs2)CC1" . Value?
48.4

----------
Details: buffer; pH 7.4; 200.0 µM
# binarize solubility kinetic: threshold 20 µg/mL inclusive, high side Fulfilled, low side Not fulfilled

API: above_or_equal(metric=solubility kinetic, cutoff=20 µg/mL) for item "O=C(Nc1ccccc1)c1cccc2c(Br)cccc12"
Not fulfilled

Kindly determine if solubility kinetic recorded for "COc1ccccc1CCC(=O)NNC(=O)c1ccncc1" is above or exactly 20 µg/mL.
Fulfilled

Is solubility kinetic at least 20 µg/mL? Consider "COCc1cc(NCc2ccc(Cl)cc2)nc(C)n1"
Fulfilled

Check this molecule for solubility kinetic at or above 20 µg/mL: "Nc1nonc1C(=O)NCCNc1ncccc1[N+](=O)[O-]"
Fulfilled

Check if solubility kinetic >= 20 µg/mL (inclusive). Item: Cc1cc(OCC(O)CN(C)C(=O)C(C)Oc2ccccc2)ccc1Cl (centres undefined)
Fulfilled

New cases:
Given the entry "COc1ccc(-c2csc3ncnc(NCCO)c23)cc1" , answer whether its solubility kinetic meets or surpasses 20 µg/mL.
Fulfilled

Please tell me: is the molecule "NC(=O)c1ccc(CN2CCc3ccccc3C2)cc1" at or over 20 µg/mL in terms of solubility kinetic?
Fulfilled

# check: solubility kinetic of "COc1ccccc1/C=C/C(=O)Nc1cccnc1Cl" is greater than or equal to 20 µg/mL
Not fulfilled

The reported numbers originate from PubChem BioAssay AID1996.
